Origin of values: PubChem BioAssay (NCI)

Measured growth inhibition accompanies every entry in the list below.
method.description: NCI Yeast Anticancer Drug Screen. Data for the mec2-1 strain (AID 157)
details: S. cerevisiae mec2-1 strain, at 50.0 µM, hits give high values
This is part of a sample that, as a whole, favours compounds with a hit. Of some 79,000 tested, about 15% had one in any assay.
measured.parameter: growth inhibition (%)

# chem.smiles, measured.parameter, measured
rows = [
    ("FC(F)(F)c1nc(=S)c2cn[nH]c2[nH]1", "growth inhibition", 31.1),
    ("CNC(=O)CN(CC(N)=O)C(=O)NC", "growth inhibition", -20.3),
    ("C(=Nc1ccc(SSc2ccc(N=Cc3ccc4c(c3)OCO4)cc2)cc1)c1ccc2c(c1)OCO2", "growth inhibition", 0.05),
]

====

method.description: NCI Yeast Anticancer Drug Screen. Data for the sgs1 mgt1 strain (AID 161);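 also: 0% = growth of cultures given vehicle only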
details: S. cerevisiae sgs1 mgt1 strain, at 50.0 µM, hits give high values
Method: Growth inhibition of yeast strains with defined genetic alterations is measured as a screen for potential anti-cancer activity. Selected strains with alterations in DNA damage repair or cell cycle control were exposed to compounds and growth inhibition was measured relative to vehicle treated controls. The strain used in this assay is sgs1 mgt1
About 79,000 compounds went through this panel and 15% of them were active in at least one assay; those are over-represented in the sample as a whole.
measured.parameter: growth inhibition (%)

# molecule, measured.parameter, unit.name, measured
rows = [
    ("COc1cc(C2NCCC(c3ccccc3)(c3ccccc3)N2)cc(OC)c1OC (stereo not drawn)", "growth inhibition", "%", 5.25),
    ("C/C(CC(=O)Nc1cccc(Cl)c1C)=N\\N=C(N)N", "growth inhibition", "%", -15.2),
    ("CC(=O)NC(Cc1ccccc1)C(=O)Nc1ccccc1C (stereo not drawn)", "growth inhibition", "%", 14.8),
]

====

method.description: NCI Yeast Anticancer Drug Screen. Data for the cln2 rad14 strain (AID 165);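 also: 0% = growth equal to vehicle treated cultures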
details: S. cerevisiae cln2 rad14 strain, at 50.0 µM, hits give high values
About 79,000 compounds went through this panel and 15% of them were active in at least one assay; those are over-represented in the sample as a whole.
Catalogue of growth inhibition readings, one per entry.

# compound, growth inhibition / %
records = [
    ("O=c1c(-c2ccccc2)c2oc(c1-c1ccccc1)CS(=O)(=O)CCC2", 12.3),
    ("Cc1ccc(S(=O)(=O)N2CCC[C@@H]2C(=O)O[C@@H]2CCC3CC=CC32)cc1 (stereo not given in full)", -1.8),
    ("CONCC(=O)c1ccc(SC)cc1", -21.8),
    ("CC(C)c1cccc(C(C)C)c1NC(=O)/C(Cc1nc2ccc(Cl)cc2[nH]c1=O)=N\\NC(=O)C[N+](C)(C)C", 25.7),
    ("COc1ccc(S(=O)(=O)N(CC(=O)O)c2ccccc2)cc1", -6.15),
    ("C1=CCC(C(Cc2ccccc2)N2CCCCC2)CC1 (stereo not given)", -27.4),
    ("Cc1ccc(-c2n[nH]c(=O)n2N)cc1", 5.45),
    ("CC(=O)Nc1ccc(S(=O)(=O)O)c(C(F)(F)F)c1", -8),
    ("O=C(O)/C=C/C(=O)Nc1ccc2c(c1)C(O)c1ccccc1-2 (stereo not given)", -45.7),
    ("CC12CC(=O)OC(C1)C(=O)c1ccccc12 (stereo not given)", 4.45),
]

====

method.description: NCI Yeast Anticancer Drug Screen. Data for the mec2-1 strain (AID 157)
details: S. cerevisiae mec2-1 strain, at 50.0 µM, hits give high values
The panel holds about 79,000 compounds, 15% with a hit somewhere; the sample as a whole holds those more often.
Here the recorded growth inhibition is given for each entry.

# compound, unit.name, growth inhibition
rows = [
    ("O=C(CBr)c1cc2ncccc2c2ccccc12", "%", 51),
    ("CCN(CC)C(=O)C1CCN(Cc2c[nH]c3ccccc23)CC1", "%", -6.85),
    ("CCOC(=O)c1nc2c([nH]1)c(=O)n(C)c(=O)n2C", "%", 10.7),
    ("COc1ccc2c(CC(=O)O)cc(=O)oc2c1", "%", -22.8),
    ("c1ccc(Cn2nnnc2Nc2ccccc2)cc1", "%", -10.7),
    ("C/C=C1\\CN2CCc3c([nH]c4ccccc34)C2CC1CC(=O)N(C)C (stereo not given)", "%", -7.75),
    ("Clc1ccc2c(c1)nc(-c1ccccn1)n2CCc1ccncc1", "%", 0.05),
    ("COc1ccc([N+](=O)[O-])c2ccc(=O)oc12", "%", 5.2),
    ("COc1cc(/C=N/N2CC(=O)N(c3cccc(Cl)c3)CC2=O)cc(OC)c1", "%", 5.7),
    ("Cc1[nH]c(=O)c(C#N)c(C)c1-c1ccccc1", "%", -3.9),
    ("Cc1cccc(C(=O)N(C)C)c1", "%", 1.75),
    ("Clc1ccc2c(NCCCCN=Cc3ccccc3)ccnc2c1", "%", -27.2),
    ("CC1C(c2ccccc2O)c2cc3c(cc2OC1N1CCCC1)OCO3 (stereo not given)", "%", 38.8),
    ("CCOC(=O)C1=CNC(C(=O)OCC)C1c1cccn1-c1ccc(Cl)cc1[N+](=O)[O-] (stereo not given)", "%", 16.8),
    ("NC(=O)Nc1ccc(Cc2ccc(NC(N)=O)cc2)cc1", "%", -26.8),
    ("CCN(CC)CCCNc1nc2ccccc2c2c1ncn2CC(C)C", "%", 5.4),
    ("O=COC1CCCCCC1", "%", -28.9),
    ("N=C(N)SCc1cn2ccccc2n1", "%", -30.5),
    ("CC(C)(C)N=C1CC(C)(C)c2ccccc2C(=Nc2ccccc2)S1", "%", 9.55),
    ("COc1cc(CN=c2nc(N(C)C)ss2)cc(OC)c1OC", "%", -11.2),
    ("c1cncc(Cc2nc3ccccc3[nH]2)c1", "%", -2.5),
    ("CCOc1ccc(-c2nnc(Nc3ccc(S(=O)(=O)N4CCCCC4)cc3)s2)cc1", "%", 9.6),
    ("Oc1ccc(C=Nc2ccccc2)c(O)c1O", "%", -24.4),
    ("Cc1cc(S(=O)(=O)Cl)ccc1Cl", "%", 1.3),
    ("CCC(=O)c1ccc2c(ccc3ccccc32)c1O", "%", -6.8),
]

====

Measured growth inhibition of individual entries
method.description: NCI Yeast Anticancer Drug Screen. Data for the mlh1 rad18 strain (AID 175)
details: S. cerevisiae mlh1 rad18 strain growth inhibition; at 50.0 µM; hits give high values
The panel holds about 79,000 compounds, 15% with a hit somewhere; the sample as a whole holds those more often. Active and inactive are the calls of the source. No stated cut-off is given here; in the data, active means growth inhibition above about 70%; inactive means the rest.

# compound, growth inhibition
records = [
    ("CC(=O)Oc1ccccc1/C=C1\\N=C(c2ccccc2)OC1=O", "-6.4% (inactive)"),
    ("COC(=O)C1(C(C)C(=O)c2ccc(Cl)cc2)NC(=S)NC(=O)C1C#N (centres undefined)", "12.7% (inactive)"),
    ("CCOc1cc(C)c2cccc(C)c2n1", "13.8% (inactive)"),
    ("COC(=O)CC/C=N/NC(N)=O", "-4.05% (inactive)"),
    ("COc1c(C)cc(-c2cc(C)c(OC)c(C)c2)cc1C", "-3.55% (inactive)"),
    ("COC(=O)c1cc(C(=O)OC)c2c3[nH]cnc3ncn2c1=O", "21.4% (inactive)"),
    ("CC(C(=O)O)C(Nc1ncnc2c1ncn2C1OC(CO)C(O)C1O)C(=O)O (centres undefined)", "-26.4% (inactive)"),
    ("Nc1ccc(P(=O)(O)c2ccc(N)cc2Br)c(Br)c1", "-6.8% (inactive)"),
    ("N/N=C(\\N)SCc1ccc(N=C=S)cc1", "15.5% (inactive)"),
    ("NC(Cc1ccc(S(=O)(=O)O)cc1)C(=O)NC(Cc1ccc(S(=O)(=O)O)cc1)C(=O)NC(Cc1ccc(S(=O)(=O)O)cc1)C(=O)O (centres undefined)", "-8.2% (inactive)"),
    ("CCCCN(Cc1ccccc1)C(=O)Nc1ccccc1", "1.2% (inactive)"),
    ("CC1(C)CCC(C)(C)c2cc(C(=O)O)ccc21", "5.05% (inactive)"),
    ("COc1ccc(NC(=O)C(=O)C(C(=O)c2ccccc2)C2OC(=O)c3ccccc32)c([N+](=O)[O-])c1 (centres undefined)", "8.1% (inactive)"),
    ("CC(=O)c1sc2c(c1OC(=O)c1ccco1)c(=O)n(-c1ccccc1)c(=S)n2-c1ccccc1", "33.9% (inactive)"),
    ("COC(=O)NS(=O)(=O)C1=Cc2cccc3cccc1c23", "8.4% (inactive)"),
    ("O=C1OC(=O)C(=C(c2ccccc2)c2ccccc2)C1=C(c1ccccc1)c1ccccc1", "76.8% (active)"),
    ("C=CCOC(=O)Cc1ccccc1C(=O)OCC=C", "-6.25% (inactive)"),
    ("CCC(CCC#N)(CCC#N)C(=O)c1ccc(C)s1", "2.45% (inactive)"),
    ("CCOC(=O)C(C(=O)OCC)C(C)(C)C", "-9.2% (inactive)"),
    ("O=C(O)CCC(=O)Nc1cc(C(F)(F)F)ccc1Cl", "7.5% (inactive)"),
    ("COC(=O)C1(Cc2ccc3c(c2)CCC3)Cc2ccccc2C1=O (centres undefined)", "8.8% (inactive)"),
    ("Cc1csc2nc(-c3cccs3)nn12", "-9.1% (inactive)"),
    ("CN1CC(O)C(C(=O)NC23CC4CC(CC(C4)C2)C3)C1 (centres undefined)", "30.2% (inactive)"),
    ("Cc1ccccc1-c1c2ccccc2cc2c1ccc1ccccc12", "0.35% (inactive)"),
    ("CC12CC3CC(C)(C1)CC(CN=C(N)CS)(C3)C2", "99.3% (active)"),
    ("C=C1C(=O)OC2CCCC(O)C12 (centres undefined)", "1.9% (inactive)"),
    ("C=CCOC(=O)C1CCCCC1C(=O)OCC=C (centres undefined)", "1.9% (inactive)"),
    ("CCNc1nc2c(ncn2C2CC(O)C(COP(=O)(O)O)O2)c(=O)[nH]1 (centres undefined)", "-16.1% (inactive)"),
    ("COc1ccc(C2=CSc3ccccc3N2)cc1", "11.4% (inactive)"),
]
